Target chain: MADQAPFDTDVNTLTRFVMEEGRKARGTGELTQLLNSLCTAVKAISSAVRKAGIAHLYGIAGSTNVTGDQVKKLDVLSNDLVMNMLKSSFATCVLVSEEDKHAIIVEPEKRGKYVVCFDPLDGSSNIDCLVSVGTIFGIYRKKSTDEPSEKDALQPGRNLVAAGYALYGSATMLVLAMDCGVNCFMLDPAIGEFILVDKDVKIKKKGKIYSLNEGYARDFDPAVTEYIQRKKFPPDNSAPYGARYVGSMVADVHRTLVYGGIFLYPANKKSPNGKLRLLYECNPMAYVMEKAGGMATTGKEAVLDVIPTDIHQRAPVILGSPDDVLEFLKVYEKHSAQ
Here is a set of compounds with reported pIC50 for the protein given by its sequence, compiled from the literature.
Give bare numbers, as −log10 of the molar value.

smiles_repr: Nc1nc(-c2ccc(P(=O)(O)O)o2)c(Cc2ccccc2)s1
pIC50: 6.82

I need pIC50 for every entry listed below, if you could help.
1. COC(=O)c1oc(N)nc1-c1ccc(P(=O)(O)O)o1
2. Cc1ccc2oc(NS(=O)(=O)c3cc(Cl)ccc3Cl)nc2c1
3. Nc1cccc2c1nc(-c1ccc(P(=O)(O)O)o1)n2CC12CCC(CC1)C2
4. CNC(=O)c1oc(N)nc1-c1ccc(P(=O)(O)O)o1

Solution:
7.17
5.19
6.00
6.00

Problem: # query: pIC50 of entry Nc1nc(-c2ccc(P(=O)(O)O)o2)c(Sc2ccccc2)s1
Solution: 6.52
